- System: P. aeruginosa 101/1477 (IMP-1)
- Measurement context: MHB, 5 × 10^5 CFU/mL, 18 h, 35 °C, triplicate
Non-standard residues stand in square brackets, D forms with d. Residues, ends and D or L forms follow the SMILES beside them. *: point of attachment. Leu(ol) = CC(C)C[C@H](N)CO; Octanoyl = CCCCCCCC(=O)*; Aib = CC(C)(N)C(=O)O
Reported MBC P. aeruginosa 101/1477 (IMP-1) is given for each of the following molecules.
Reported property: MBC P. aeruginosa 101/1477 (IMP-1) (mg/L)

>>> test_value("CCCCCCCC(=O)NC(C)(C)C(=O)N[C@@H](CCCCN)C(=O)N[C@@H](CC(C)C)C(=O)NC(C)(C)C(=O)N[C@@H](CCCCN)C(=O)NCC(=O)N[C@@H](CC(C)C)C(=O)NC(C)(C)C(=O)NCC(=O)N[C@H](C(=O)N[C@H](CO)CC(C)C)[C@@H](C)CC [Peptide 1] (Octanoyl-[Aib]KL[Aib]KGL[Aib]GI[Leu(ol)])")
16
>>> test_value("CCCCCCCC(=O)NC(C)(C)C(=O)NCC(=O)N[C@@H](CC(C)C)C(=O)NC(C)(C)C(=O)N[C@@H](CCCCN)C(=O)N[C@@H](CCCCN)C(=O)N[C@@H](CC(C)C)C(=O)NC(C)(C)C(=O)NCC(=O)N[C@H](C(=O)N[C@H](CO)CC(C)C)[C@@H](C)CC [Peptide 4]")
16
>>> test_value("CCCCCCCC(=O)NC(C)(C)C(=O)N[C@@H](CCCCN)C(=O)N[C@@H](CC(C)C)C(=O)NC(C)(C)C(=O)N[C@@H](CCCCN)C(=O)N[C@@H](CCCCN)C(=O)N[C@@H](CC(C)C)C(=O)NC(C)(C)C(=O)N[C@@H](CCCCN)C(=O)N[C@H](C(=O)N[C@H](CO)CC(C)C)[C@@H](C)CC [Peptide 7] (Octanoyl-[Aib]KL[Aib]KKL[Aib]KI[Leu(ol)])")
8
>>> test_value("CCCCCCCC(=O)NC(C)(C)C(=O)N[C@@H](CCCCN)C(=O)N[C@@H](CC(C)C)C(=O)NC(C)(C)C(=O)N[C@@H](CCCCN)C(=O)N[C@@H](CCCCN)C(=O)N[C@@H](CC(C)C)C(=O)NC(C)(C)C(=O)NCC(=O)N[C@H](C(=O)N[C@@H](CC(C)C)C(N)=O)[C@@H](C)CC [Peptide 11] (Octanoyl-[Aib]KL[Aib]KKL[Aib]GIL-NH2)")
8

---

- Tested on: Pseudomonas aeruginosa ATCC 27853
- Measurement context: MHB, 5 × 10^5 CFU/mL, 18 h, 35 °C, triplicate
- Experimental: The antibacterial activity of the peptides was initially assessed on a panel of representative Gram-positive and Gram-negative organisms of high clinical relevance and commonly responsible for bacterial infections in both animals and humans. Bacillus subtilis ATCC 6633 (Bsu) was also included as a rod-shaped model Gram-positive organism. […] Both the minimum inhibitory concentration (MIC, Table 2) and the minimum bactericidal concentration (MBC, Table S1, Supporting Material) were determined. […]
Non-standard residues stand in square brackets, D forms with d. Residues, ends and D or L forms follow the SMILES beside them. *: point of attachment. Leu(ol) = CC(C)C[C@H](N)CO; Octanoyl = CCCCCCCC(=O)*; Aib = CC(C)(N)C(=O)O
Reported property: MIC Pae

>>> test_value("CCCCCCCC(=O)NC(C)(C)C(=O)NCC(=O)N[C@@H](CC(C)C)C(=O)NC(C)(C)C(=O)NCC(=O)NCC(=O)N[C@@H](CC(C)C)C(=O)NC(C)(C)C(=O)NCC(=O)N[C@H](C(=O)N[C@H](CO)CC(C)C)[C@@H](C)CC [Peptide 0, Trichogin GA IV, reference compound] (Octanoyl-[Aib]GL[Aib]GGL[Aib]GI[Leu(ol)])")
"> 128 µg/mL"
>>> test_value("CCCCCCCC(=O)NC(C)(C)C(=O)NCC(=O)N[C@@H](CC(C)C)C(=O)NC(C)(C)C(=O)N[C@@H](CCCCN)C(=O)N[C@@H](CCCCN)C(=O)N[C@@H](CC(C)C)C(=O)NC(C)(C)C(=O)NCC(=O)N[C@H](C(=O)N[C@H](CO)CC(C)C)[C@@H](C)CC [Peptide 4]")
"8 µg/mL"
>>> test_value("CCCCCCCC(=O)NC(C)(C)C(=O)NCC(=O)N[C@@H](CC(C)C)C(=O)NC(C)(C)C(=O)N[C@@H](CCCCN)C(=O)NC(C)(C)C(=O)N[C@@H](CC(C)C)C(=O)NC(C)(C)C(=O)NCC(=O)N[C@H](C(=O)N[C@@H](CC(C)C)C(N)=O)[C@@H](C)CC [Peptide 6b] (Octanoyl-[Aib]GL[Aib]K[Aib]L[Aib]GIL-NH2)")
"> 128 µg/mL"

---

Reported MIC Bsu is given for each of the following compounds.
- System: Bacillus subtilis ATCC 6633
- Measurement context: MHB, 5 × 10^5 CFU/mL, 18 h, 35 °C, triplicate
Non-standard residues stand in square brackets, D forms with d. Residues, ends and D or L forms follow the SMILES beside them. *: point of attachment. Leu(ol) = CC(C)C[C@H](N)CO; Octanoyl = CCCCCCCC(=O)*; Aib = CC(C)(N)C(=O)O
Reported property: MIC Bsu (µg/mL)

>>> test_value("CCCCCCCC(=O)NC(C)(C)C(=O)NCC(=O)N[C@@H](CC(C)C)C(=O)NC(C)(C)C(=O)NCC(=O)NCC(=O)N[C@@H](CC(C)C)C(=O)NC(C)(C)C(=O)NCC(=O)N[C@H](C(=O)N[C@H](CO)CC(C)C)[C@@H](C)CC [Peptide 0, Trichogin GA IV, reference compound] (Octanoyl-[Aib]GL[Aib]GGL[Aib]GI[Leu(ol)])")
16
>>> test_value("CCCCCCCC(=O)NC(C)(C)C(=O)NCC(=O)N[C@@H](CC(C)C)C(=O)NC(C)(C)C(=O)N[C@@H](CCCCN)C(=O)NC(C)(C)C(=O)N[C@@H](CC(C)C)C(=O)NC(C)(C)C(=O)NCC(=O)N[C@H](C(=O)N[C@@H](CC(C)C)C(N)=O)[C@@H](C)CC [Peptide 6b] (Octanoyl-[Aib]GL[Aib]K[Aib]L[Aib]GIL-NH2)")
128
>>> test_value("CCCCCCCC(=O)NC(C)(C)C(=O)N[C@@H](CCCCN)C(=O)N[C@@H](CC(C)C)C(=O)NC(C)(C)C(=O)N[C@@H](CCCCN)C(=O)N[C@@H](CCCCN)C(=O)N[C@@H](CC(C)C)C(=O)NC(C)(C)C(=O)N[C@@H](CCCCN)C(=O)N[C@H](C(=O)N[C@H](CO)CC(C)C)[C@@H](C)CC [Peptide 7] (Octanoyl-[Aib]KL[Aib]KKL[Aib]KI[Leu(ol)])")
2
>>> test_value("CCCCCCCC(=O)NC(C)(C)C(=O)N[C@@H](CCCCN)C(=O)N[C@@H](CCCCN)C(=O)N[C@@H](CC(C)C)C(=O)N[C@@H](CC(C)C)C(N)=O [Peptide 13, 1-Oct-Aib-Lys-Lys-Leu-Leu-NH2] (Octanoyl-[Aib]KKLL-NH2)")
32

---

- Tested on: blood agar plate (Columbia CNA Agar)
- Experiment summary: Hemolysis on blood agar plate
- Measurement context: 50 μg spotted on blood agar, 35 ± 2 °C, 24 h, average of triplicate
- Experimental: Hemolysis zones were visually determined and measured. […] For two additional peptides (6 and 15), only a small hemolysis zone (diameter 4–5 mm) was visible, as compared to that of the positive control (Triton X-100, 13 mm). Briefly, 2 μL of each peptide solution in DMSO (25 mg/mL), corresponding to 50 μg, was spotted on the surface of a blood agar plate (Columbia CNA Agar, Becton Dickinson Italia S.p.A., Florence, Italy). […]
Non-standard residues stand in square brackets, D forms with d. Residues, ends and D or L forms follow the SMILES beside them. *: point of attachment. Octanoyl = CCCCCCCC(=O)*; Api = NC1(C(=O)O)CCNCC1; Aib = CC(C)(N)C(=O)O
Reported property: Hemolysis (d, diameter of hemolysis zone) (mm)

>>> test_value("CCCCCCCC(=O)NC(C)(C)C(=O)NCC(=O)N[C@@H](CC(C)C)C(=O)NC(C)(C)C(=O)NCC(=O)NCC(=O)N[C@@H](CC(C)C)C(=O)NC1(C(=O)NCC(=O)N[C@H](C(=O)N[C@@H](CC(C)C)C(N)=O)[C@@H](C)CC)CCNCC1 [Peptide 8] (Octanoyl-[Aib]GL[Aib]GGL[Api]GIL-NH2)")
7
>>> test_value("CCCCCCCC(=O)NC(C)(C)C(=O)N[C@@H](CCCCN)C(=O)N[C@@H](CC(C)C)C(=O)NC(C)(C)C(=O)NCC(=O)NCC(=O)N[C@@H](CC(C)C)C(=O)NC(C)(C)C(=O)NCC(=O)N[C@H](C(=O)N[C@@H](CC(C)C)C(N)=O)[C@@H](C)CC [Peptide 2] (Octanoyl-[Aib]KL[Aib]GGL[Aib]GIL-NH2)")
8

Value source: paper PMC10178204
